- Tested on: Human TRPV3 (Homo sapiens, UniProt Q8NET8)
- Construct: expressed in transfected cells; host or cells: CHO cells (selected with G-418)
- Assay procedure: 45Calcium uptake assay: inhibition of 2-APB induced cellular uptake of radioactive calcium
- Type: cell-based
- Protocol conditions: 1 μM test compound; human TRPV3 expressing CHO cells; 2-APB 500 μM; read-out: Percentage Inhibition (1 μM)
Each entry below carries its recorded inhibition at 1 µM.
API: value field is a number in %; no unit string.

# inhibition at 1 µM lookup, item "COc1cccc(/C=C/c2nc3ccccc3n2-c2ccc(C(F)(F)F)cc2)c1OCC1CC1"
72.2

// same read-out, input: "COc1cccc(/C=C/c2nc3c(F)cc(F)cc3n2-c2ccc(C#N)cn2)c1OC1CCCC1"
97.6

// same read-out, input: "CCCCOc1c(/C=C/c2nc3ccccc3n2-c2ccc(C#N)cn2)cccc1OC"
91.6

Next:
# inhibition at 1 µM lookup, item "COC(=O)c1ccc(-n2c(/C=C/c3cccc(OC)c3OC3CCCC3)nc3ccc(F)cc32)nc1"
32.1

====

- Tested on: Human TRPV3 (Homo sapiens, UniProt Q8NET8)
- Construct: expressed in transfected cells; host or cells: CHO cells (selected with G-418)
- Assay procedure: 45Calcium uptake assay: inhibition of 2-APB induced cellular uptake of radioactive calcium
- Type: cell-based
- Protocol conditions: 1 μM test compound; human TRPV3 expressing CHO cells; 2-APB 500 μM; read-out: Percentage Inhibition (1 μM)
Readout name: inhibition at 1 µM (%)
API: value field is a number in %; no unit string.

# inhibition at 1 µM lookup, item "COc1cccc(/C=C/c2nc3ccccc3n2-c2ccc(C(F)(F)F)cn2)c1OC(C)C"
86.7

// same read-out, input: "N#Cc1ccc(-n2c(/C=C/c3cccc(OC(F)F)c3OCC3CCC3)nc3cc(Cl)cnc32)nc1"
95.1

// same read-out, input: "COc1cccc(/C=C/c2nc3ccccc3n2Cc2ccc(C#N)cc2)c1OCC1CC1"
60.2

Next:
# inhibition at 1 µM lookup, item "COc1cccc(/C=C/c2nc3ccc(Cl)cc3n2-c2ccc(C#N)cn2)c1OCC(C)C"
97.7

====

- Tested on: Human TRPV3 (Homo sapiens, UniProt Q8NET8)
- Construct: expressed in transfected cells; host or cells: CHO cells (selected with G-418)
- Assay procedure: 45Calcium uptake assay: inhibition of 2-APB induced cellular uptake of radioactive calcium
- Assay type: cell-based
- Protocol conditions: class symbol; human TRPV3 expressing CHO cells; 2-APB 500 μM
pIC50: −log10 of the molar value.
Readout name: pIC50

Below: 4 molecules and their reported pIC50.
# pIC50 lookup, item "COc1cccc(/C=C/c2nc3cc(Cl)c(Cl)cc3n2-c2ccc(C#N)cn2)c1OC1CCCC1"
6.30 to 7.00

// same read-out, input: "N#Cc1ccc(-n2c(/C=C/c3cccc(OC(F)F)c3OC3CCCC3)nc3cc(Cl)cnc32)nc1"
7.00 to 7.30

// same read-out, input: "CCCCCOc1c(/C=C/c2nc3cccnc3n2-c2ccc(C#N)cn2)cccc1OC"
6.30 to 7.00

// same read-out, input: "COc1cccc(/C=C/c2nc3cccnc3n2-c2ccc(C#N)cn2)c1OCC1CCC1"
7.00 to 7.30

Next:
# pIC50 lookup, item "COc1cccc(/C=C/c2nc3ccccc3n2-c2ccc(C(F)(F)F)cn2)c1OCC1CC1"
< 6.30

// same read-out, input: "N#Cc1ccc(-n2c(/C=C/c3cccc(OC(F)F)c3OCC3CCC3)nc3cc(Cl)cnc32)nc1"
7.00 to 7.30

// same read-out, input: "COc1cccc(/C=C/c2nc3ccc(OC(F)F)cc3n2-c2ccc(C#N)cn2)c1OC1CCCC1"
6.30 to 7.00

// same read-out, input: "CCOc1c(/C=C/c2nc3cc(F)c(F)cc3n2-c2ccc(C#N)cn2)cccc1OC"
6.30 to 7.00

// same read-out, input: "CCCCCOc1c(/C=C/c2nc3cccnc3n2-c2ccc(C#N)cn2)cccc1OC(F)F"
7.00 to 7.30

// same read-out, input: "CCC(CC)Oc1c(/C=C/c2nc3cc(F)c(F)cc3n2-c2ccc(C#N)cn2)cccc1OC"
7.00 to 7.30

// same read-out, input: "COc1cccc(/C=C/c2nc3cc(F)cc(F)c3n2-c2ccc(C#N)cn2)c1OC1CCCC1"
7.00 to 7.30

// same read-out, input: "COc1cccc(/C=C/c2nc3ccccc3n2-c2ccc(C#N)cn2)c1OCc1ccccc1C#N"
< 6.30

// same read-out, input: "COc1cccc(/C=C/c2nc3ccccc3n2-c2ccc(C#N)cn2)c1OCC1CC1"
6.30 to 7.00

// same read-out, input: "COc1cccc(/C=C/c2nc3cc(F)c(F)cc3n2-c2ccc(C#N)cn2)c1OC1CCCC1"
7.00 to 7.30

// same read-out, input: "COc1ccc2nc(/C=C/c3cccc(OC)c3OC3CCCC3)n(-c3ccc(C#N)cn3)c2c1"
7.00 to 7.30

// same read-out, input: "COc1cccc(/C=C/c2nc3cccnc3n2-c2ccc(C#N)cn2)c1OC1CCCC1"
6.30 to 7.00

// same read-out, input: "COc1cccc(/C=C/c2nc3ccccc3n2-c2ncc(C(F)(F)F)cc2Cl)c1OC1CCCC1"
6.30 to 7.00

// same read-out, input: "CCCCCOc1c(/C=C/c2nc3cc(F)c(F)cc3n2-c2ccc(C#N)cn2)cccc1OC(F)F"
7.00 to 7.30

// same read-out, input: "COc1cccc(/C=C/c2nc3c(F)cc(F)cc3n2-c2ccc(C#N)cn2)c1OC1CCCC1"
7.00 to 7.30

// same read-out, input: "COc1cccc(/C=C/c2nc3ccccc3n2-c2ccc(C#N)cn2)c1OC(C)C"
< 6.30

// same read-out, input: "N#Cc1ccc(-n2c(/C=C/c3cccc(OC(F)F)c3OC3CCCC3)nc3cc(F)c(F)cc32)nc1"
> 7.30

// same read-out, input: "CCCCOc1c(/C=C/c2nc3ccccc3n2-c2ccc(C#N)cc2)cccc1OC"
6.30 to 7.00

// same read-out, input: "CCCCCOc1c(/C=C/c2nc3cc(F)c(F)cc3n2-c2ccc(C#N)cn2)cccc1OC"
7.00 to 7.30

// same read-out, input: "COc1cccc(/C=C/c2nc3ccccc3n2-c2ccc(C(F)(F)F)cn2)c1OC(C)C"
6.30 to 7.00

// same read-out, input: "CCCCOc1c(/C=C/c2nc3ccccc3n2-c2ccc(C(F)(F)F)cn2)cccc1OC"
6.30 to 7.00

====

- Tested on: Human TRPV3 (Homo sapiens, UniProt Q8NET8)
- Construct: expressed in transfected cells; host or cells: CHO cells (selected with G-418)
- Sequence (Q8NET8 1-790): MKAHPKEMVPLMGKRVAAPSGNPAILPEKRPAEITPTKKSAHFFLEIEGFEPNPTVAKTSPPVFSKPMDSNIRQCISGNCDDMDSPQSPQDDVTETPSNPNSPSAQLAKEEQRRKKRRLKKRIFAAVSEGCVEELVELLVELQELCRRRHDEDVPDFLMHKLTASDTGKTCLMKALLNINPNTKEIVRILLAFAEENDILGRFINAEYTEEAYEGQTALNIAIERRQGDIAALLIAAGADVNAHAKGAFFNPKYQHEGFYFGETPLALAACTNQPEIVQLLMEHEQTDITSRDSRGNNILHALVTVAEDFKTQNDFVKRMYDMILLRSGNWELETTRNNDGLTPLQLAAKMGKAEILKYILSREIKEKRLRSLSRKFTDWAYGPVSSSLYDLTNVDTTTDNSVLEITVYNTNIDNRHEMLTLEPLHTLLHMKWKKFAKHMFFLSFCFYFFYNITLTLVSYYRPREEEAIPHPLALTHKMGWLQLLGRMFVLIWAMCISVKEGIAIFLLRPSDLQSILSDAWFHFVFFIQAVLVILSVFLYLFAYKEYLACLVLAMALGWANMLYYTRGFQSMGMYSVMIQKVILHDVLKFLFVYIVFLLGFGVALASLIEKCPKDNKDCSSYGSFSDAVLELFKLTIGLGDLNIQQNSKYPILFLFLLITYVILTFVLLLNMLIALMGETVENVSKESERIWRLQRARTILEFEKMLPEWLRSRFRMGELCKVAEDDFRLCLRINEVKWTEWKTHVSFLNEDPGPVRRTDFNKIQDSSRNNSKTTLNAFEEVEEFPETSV
- Assay procedure: 45Calcium uptake assay: inhibition of 2-APB induced cellular uptake of radioactive calcium
- Assay type: cell-based
- Protocol conditions: 1 μM test compound; human TRPV3 expressing CHO cells; 2-APB 500 μM; read-out: Percentage Inhibition (1 μM)
Readout name: inhibition at 1 µM (%)
API: value field is a number in %; no unit string.

Below: 4 molecules and their reported inhibition at 1 µM.
Test system Human TRPV3 (Homo sapiens, UniProt Q8NET8); read-out inhibition at 1 µM; what value for "CCCCCOc1c(/C=C/c2nc3c(F)c(F)c(F)cc3n2-c2ccc(C#N)cn2)cccc1OC" ?
90.7

// same read-out, input: "COc1cccc(/C=C/c2nc3ccccc3n2-c2nccs2)c1OC1CCCC1"
22.4

// same read-out, input: "COc1cccc(/C=C/c2nc3ccccc3n2-c2ccc(C#N)cn2)c1OCc1ccccc1F"
93.2

// same read-out, input: "COc1cccc(/C=C/c2nc3cc(Cl)ccc3n2-c2ccc(C#N)cn2)c1OC1CCCC1"
95.9

Next:
Test system Human TRPV3 (Homo sapiens, UniProt Q8NET8); read-out inhibition at 1 µM; what value for "COc1cccc(/C=C/c2nc3cc(F)c(F)cc3n2-c2ccc(C#N)cn2)c1O" ?
32.7

// same read-out, input: "COc1cccc(/C=C/c2nc3cc(F)c(F)cc3n2-c2ccc(C#N)cn2)c1OCC1CCC1"
95.5

// same read-out, input: "COc1ccc2nc(/C=C/c3cccc(OC)c3OC3CCCC3)n(-c3ccc(C#N)cn3)c2c1"
96.2

// same read-out, input: "COc1cccc(/C=C/c2nc3cc(F)c(F)cc3n2-c2ccc(C(=O)O)nn2)c1OC1CCCC1"
1.7

// same read-out, input: "CCOc1c(/C=C/c2nc3cc(F)c(F)cc3n2-c2ccc(C#N)cn2)cccc1OC"
80.8

// same read-out, input: "COc1cccc(/C=C/c2nc3ccccc3n2-c2ccc(C#N)cn2)c1OCc1ccccc1C(F)(F)F"
97.7
